Origin of values: ChEMBL document CHEMBL5724914

test: The drug is tested on Z-018 corresponding to pig gut metagenome with ENA study accession number: PRJEB37062 and ENA sample accession number: ERS12561817 for biotransformation under anaerobic condition. The drug concentrations were measured over 9 timepoints collected between 0 and 24 hours of incubation by liquid-chromatography-coupled mass spectrometry (LC–MS); conditions: 2 µM; further: call rule not given here

| COMPOUND | Bacterial Biotransformation |
| --- | --- |
| O=C(O)CCC(=O)O.O=C(O[C@H]1CN2CCC1CC2)N1CCc2ccccc2[C@@H]1c1ccccc1 [SOLIFENACIN SUCCINATE] | Compound metabolized |
| COc1ccc2c(c1)c(CC(=O)O)c(C)n2C(=O)c1ccc(Cl)cc1 [INDOMETHACIN] | Compound metabolized |
| CC[C@@]1(O)C(=O)OCc2c1cc1n(c2=O)Cc2cc3c(CN(C)C)c(O)ccc3nc2-1 [TOPOTECAN] | Compound NOT metabolized |
| C[C@]12C=CC(=O)C=C1CC[C@@H]1[C@@H]2C(=O)C[C@@]2(C)[C@H]1CC[C@]2(O)C(=O)CO [PREDNISONE] | Compound metabolized |
| CN(C)C(=O)Oc1cccc([N+](C)(C)C)c1.[Br-] [NEOSTIGMINE BROMIDE] | Compound NOT metabolized |
| CC(C)(C)NCC(O)c1cc(Cl)c(N)c(Cl)c1 (centres undefined) [CLENBUTEROL] | Compound NOT metabolized |
| CCN(CC)CCNC(=O)c1cc(S(C)(=O)=O)ccc1OC [TIAPRIDE] | Compound NOT metabolized |
| CCOC(=O)C1=C[C@]2(CC)CCCN3CCc4c(n1c1ccccc41)[C@@H]32 [VINPOCETINE] | Compound metabolized |
| CCc1cccc2c3c([nH]c12)C(CC)(CC(=O)O)OCC3 (centres undefined) [ETODOLAC] | Compound metabolized |

###

assay: The drug is tested on Z-023 corresponding to metagenome with ENA study accession number: PRJEB37062 and ENA sample accession number: ERS12561822 for biotransformation under anaerobic condition. The drug concentrations were measured over 9 timepoints collected between 0 and 24 hours of incubation by liquid-chromatography-coupled mass spectrometry (LC–MS); conditions: 2 µM

| MOLECULE | Bacterial Biotransformation |
| --- | --- |
| COc1ccc(C(CN(C)C)C2(O)CCCCC2)cc1 (centres undefined) [VENLAFAXINE] | Compound NOT metabolized |
| CC(C)NCC(O)COc1ccc(CC(N)=O)cc1 (centres undefined) [ATENOLOL] | Compound NOT metabolized |
| CCN(CC)CCNC(=O)c1ccc(NC(C)=O)cc1 [ACECAINIDE] | Compound NOT metabolized |
| OC(c1cc(C(F)(F)F)nc2c(C(F)(F)F)cccc12)C1CCCCN1 (centres undefined) [MEFLOQUINE] | Compound metabolized |
| CC(=O)O[C@]1(C(C)=O)CC[C@H]2[C@@H]3C=C(C)C4=CC(=O)CC[C@]4(C)[C@H]3CC[C@@]21C [MEGESTROL ACETATE] | Compound NOT metabolized |
| CC(=O)OCC(CCn1cnc2cnc(N)nc21)COC(C)=O [FAMCICLOVIR] | Compound metabolized |
| CN(CCOc1ccc(CC2SC(=O)NC2=O)cc1)c1ccccn1.O=C(O)/C=C\C(=O)O (centres undefined) [ROSIGLITAZONE MALEATE] | Compound NOT metabolized |
| CCOC(=O)[C@H](CCc1ccccc1)N[C@@H](C)C(=O)N1Cc2ccccc2C[C@H]1C(=O)O | Compound metabolized |
| COc1ccc2c(c1)c(CC(=O)O)c(C)n2C(=O)c1ccc(Cl)cc1 [INDOMETHACIN] | Compound NOT metabolized |

###

settings: human gut metagenome, 24 h, 2 µM

| COMPOUND | Bacterial Biotransformation |
| --- | --- |
| CCCCC(=O)O[C@]1(C(=O)CO)[C@@H](C)C[C@H]2[C@@H]3CCC4=CC(=O)C=C[C@]4(C)[C@@]3(F)[C@@H](O)C[C@@]21C [BETAMETHASONE VALERATE] | Compound NOT metabolized |
| CN(C)CCOC(C)(c1ccccc1)c1ccccn1.O=C(O)CCC(=O)O (stereo not drawn) [DOXYLAMINE SUCCINATE] | Compound NOT metabolized |
| CC[C@H](C)C(=O)O[C@H]1CCC=C2C=C[C@H](C)[C@H](CC[C@@H]3C[C@@H](O)CC(=O)O3)[C@H]21 [MEVASTATIN] | Compound NOT metabolized |

###

assay: The drug is tested on WLS-090 corresponding to human gut metagenome with ENA study accession number: PRJEB37062 and ENA sample accession number: ERS12561753 for biotransformation under anaerobic condition. The drug concentrations were measured over 9 timepoints collected between 0 and 24 hours of incubation by liquid-chromatography-coupled mass spectrometry (LC–MS); settings: 2 µM
ENDPOINT LABEL: Bacterial Biotransformation

| MOLECULE | ENDPOINT LABEL | RESULT |
| --- | --- | --- |
| CNNCc1ccc(C(=O)NC(C)C)cc1 [PROCARBAZINE] | Bacterial Biotransformation | Compound NOT metabolized |
| CC(C)(C)N.CCC[C@H](N[C@@H](C)C(=O)N1[C@H](C(=O)O)C[C@@H]2CCCC[C@@H]21)C(=O)OCC [PERINDOPRIL ERBUMINE] | Bacterial Biotransformation | Compound metabolized |
| CCOC(=O)C1=C[C@]2(CC)CCCN3CCc4c(n1c1ccccc41)[C@@H]32 [VINPOCETINE] | Bacterial Biotransformation | Compound metabolized |
| CCc1oc2ccccc2c1C(=O)c1cc(Br)c(O)c(Br)c1 [BENZBROMARONE] | Bacterial Biotransformation | Compound metabolized |
| CC(C)(C)NC[C@H](O)COc1nsnc1N1CCOCC1.O=C(O)/C=C\C(=O)O [TIMOLOL MALEATE] | Bacterial Biotransformation | Compound NOT metabolized |
| CC1Cc2ccccc2N1NC(=O)c1ccc(Cl)c(S(N)(=O)=O)c1 (stereo not drawn) [INDAPAMIDE] | Bacterial Biotransformation | Compound NOT metabolized |
| C#C[C@]1(OC(C)=O)CC[C@H]2[C@@H]3CCC4=C/C(=N/O)CC[C@@H]4[C@H]3CC[C@@]21CC [NORGESTIMATE] | Bacterial Biotransformation | Compound metabolized |
| CC(C)(C)NC(=O)[C@H]1CC[C@H]2[C@@H]3CC[C@H]4NC(=O)C=C[C@]4(C)[C@H]3CC[C@]12C [FINASTERIDE] | Bacterial Biotransformation | Compound metabolized |

###

experiment: The drug is tested on WLS-098 corresponding to human gut metagenome with ENA study accession number: PRJEB37062 and ENA sample accession number: ERS12561754 for biotransformation under anaerobic condition. The drug concentrations were measured over 9 timepoints collected between 0 and 24 hours of incubation by liquid-chromatography-coupled mass spectrometry (LC–MS); details: 2 µM

| COMPOUND | Bacterial Biotransformation |
| --- | --- |
| CC(=O)Nc1ccc(OC(C)=O)cc1 [DIACETAMATE] | Compound metabolized |
| CC(NC(C)(C)C)C(=O)c1cccc(Cl)c1 (stereo not drawn) [BUPROPION] | Compound NOT metabolized |
| CC(C)(C)NC(=O)[C@H]1CC[C@H]2[C@@H]3CC[C@H]4NC(=O)C=C[C@]4(C)[C@H]3CC[C@]12C [FINASTERIDE] | Compound metabolized |
| O=P1(N(CCCl)CCCl)NCCCO1 (stereo not drawn) [CYCLOPHOSPHAMIDE ANHYDROUS] | Compound metabolized |
| C=CC[C@@H]1/C=C(\C)C[C@H](C)C[C@H](OC)[C@H]2O[C@@](O)(C(=O)C(=O)N3CCCC[C@H]3C(=O)O[C@H](/C(C)=C/[C@@H]3CC[C@@H](O)[C@H](OC)C3)[C@H](C)[C@@H](O)CC1=O)[C@H](C)C[C@@H]2OC.O [TACROLIMUS] | Compound NOT metabolized |
| Clc1cccc(Cl)c1N=C1NCCN1 [CLONIDINE] | Compound metabolized |
| CCOC(=O)C1=C(C)NC(C)=C(C(=O)OC)C1c1cccc([N+](=O)[O-])c1 (stereo not drawn) [NITRENDIPINE] | Compound metabolized |
| CC12CC3CC(C)(C1)CC(N)(C3)C2 [MEMANTINE] | Compound NOT metabolized |

###

assay: The drug is tested on Z-020 corresponding to rabbit gut metagenome with ENA study accession number: PRJEB37062 and ENA sample accession number: ERS12561819 for biotransformation under anaerobic condition. The drug concentrations were measured over 9 timepoints collected between 0 and 24 hours of incubation by liquid-chromatography-coupled mass spectrometry (LC–MS); settings: 2 µM
ENDPOINT LABEL: Bacterial Biotransformation

| MOLECULE | RESULT |
| --- | --- |
| CC[C@H](C)C(=O)O[C@H]1CCC=C2C=C[C@H](C)[C@H](CC[C@@H]3C[C@@H](O)CC(=O)O3)[C@H]21 [MEVASTATIN] | Compound NOT metabolized |
| N[C@@H](Cc1ccc(N(CCCl)CCCl)cc1)C(=O)O | Compound metabolized |
| CC(C)(C)NCC(O)c1cc(Cl)c(N)c(Cl)c1 (stereo not drawn) [CLENBUTEROL] | Compound NOT metabolized |
| CC(C)(C)NC(=O)[C@H]1CC[C@H]2[C@@H]3CC[C@H]4NC(=O)C=C[C@]4(C)[C@H]3CC[C@]12C [FINASTERIDE] | Compound metabolized |
| O=C1CCc2ccc(OCCCCN3CCN(c4cccc(Cl)c4Cl)CC3)cc2N1 [ARIPIPRAZOLE] | Compound metabolized |
| O=C(CCCN1CCC2(CC1)C(=O)NCN2c1ccccc1)c1ccc(F)cc1 [SPIPERONE] | Compound NOT metabolized |
| CCS(=O)(=O)CCn1c([N+](=O)[O-])cnc1C [TINIDAZOLE] | Compound metabolized |
| Cc1ccc(NC(=O)c2ccc(CN3CCN(C)CC3)cc2)cc1Nc1nccc(-c2cccnc2)n1 [IMATINIB] | Compound NOT metabolized |
